- assayed target: T1, human TNFR2 on the surface of CHO-TNFR2 cells (human, UniProt P20333 23-461)
- T1 construct: whole, on cells
- T1 sequence (looked up): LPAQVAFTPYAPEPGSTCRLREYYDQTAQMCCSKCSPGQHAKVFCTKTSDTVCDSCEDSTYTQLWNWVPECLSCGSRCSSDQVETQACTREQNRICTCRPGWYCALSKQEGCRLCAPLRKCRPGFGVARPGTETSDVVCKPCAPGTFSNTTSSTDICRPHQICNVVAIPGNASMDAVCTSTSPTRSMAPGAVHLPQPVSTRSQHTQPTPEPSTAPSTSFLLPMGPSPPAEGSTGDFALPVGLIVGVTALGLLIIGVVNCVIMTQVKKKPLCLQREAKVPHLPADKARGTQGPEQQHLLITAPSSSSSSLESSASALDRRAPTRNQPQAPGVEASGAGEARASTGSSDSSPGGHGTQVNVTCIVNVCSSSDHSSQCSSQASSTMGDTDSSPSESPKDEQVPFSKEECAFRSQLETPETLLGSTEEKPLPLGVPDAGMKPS
- assay method text: competition flow cytometry on CHO-TNFR2 cells, competitor TNFα-biotin; IC50 against 001-WT
- Description: CHO stable cells highly expressing human TNFR2 were used for the experiment (the same as CHO-TNFR2 in Example 4). The CHO-TNFR2 cells were digested, washed twice with DPBS, then stained with Live/Dead (L/D) (20 minutes at room temperature), and plated at a density of 1×10⁵ cells/50 μl/well. […] The mixture was washed twice with a staining buffer, and then 150 μl of staining buffer was added to resuspend the cells; signals were detected by a flow cytometer (Thermo Attune NxT). […]
quantity kind: % Relative activity (WT antibody/test antibody) (%)

| binder | unit string | meas value |
| --- | --- | --- |
| 001-Hu4 (antibody, V domains shown, Humanized form of #001; also called VH2 + VL4) VH: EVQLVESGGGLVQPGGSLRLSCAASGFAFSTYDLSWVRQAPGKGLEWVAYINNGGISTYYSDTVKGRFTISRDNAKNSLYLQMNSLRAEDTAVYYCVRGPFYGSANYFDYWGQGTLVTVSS VL: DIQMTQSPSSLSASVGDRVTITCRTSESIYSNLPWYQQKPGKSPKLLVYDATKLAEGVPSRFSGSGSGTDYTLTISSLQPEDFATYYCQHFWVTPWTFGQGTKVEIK | % | 92.3 |

Origin of measurements: patent US20240109974A1
